DC50 listing for selected compounds.
assay.system: KAT2A (Homo sapiens, UniProt Q92830)
Sequence (Q92830 whole entry): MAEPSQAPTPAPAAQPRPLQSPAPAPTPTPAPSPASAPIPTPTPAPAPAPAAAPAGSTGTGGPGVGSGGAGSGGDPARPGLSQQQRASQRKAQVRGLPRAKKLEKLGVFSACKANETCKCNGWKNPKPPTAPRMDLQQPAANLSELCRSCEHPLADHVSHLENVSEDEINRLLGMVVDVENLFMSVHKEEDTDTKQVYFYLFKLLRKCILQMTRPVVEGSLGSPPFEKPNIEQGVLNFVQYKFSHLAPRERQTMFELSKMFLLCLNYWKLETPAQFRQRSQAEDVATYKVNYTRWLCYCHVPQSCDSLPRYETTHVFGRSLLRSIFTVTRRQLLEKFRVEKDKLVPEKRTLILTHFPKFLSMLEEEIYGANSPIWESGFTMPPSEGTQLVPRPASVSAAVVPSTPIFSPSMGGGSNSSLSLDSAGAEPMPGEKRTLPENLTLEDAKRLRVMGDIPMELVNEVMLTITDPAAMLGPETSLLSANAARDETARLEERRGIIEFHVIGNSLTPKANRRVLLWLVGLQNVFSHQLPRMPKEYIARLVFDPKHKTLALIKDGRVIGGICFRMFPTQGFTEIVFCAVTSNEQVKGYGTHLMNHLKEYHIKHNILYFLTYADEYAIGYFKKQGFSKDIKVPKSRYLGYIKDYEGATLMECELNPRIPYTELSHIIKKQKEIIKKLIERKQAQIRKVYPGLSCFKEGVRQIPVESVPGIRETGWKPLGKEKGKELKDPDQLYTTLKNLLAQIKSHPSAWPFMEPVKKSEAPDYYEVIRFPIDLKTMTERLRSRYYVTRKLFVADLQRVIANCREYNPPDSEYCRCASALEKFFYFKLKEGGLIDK
experimental.protocol: KAT2A degradation, Western Blot (Jess), NCI-H1048 cells
Type: cell-based
Set-up: degrader, Western blot (Jess)
condition.label: NCI-H1048 cells, KAT2A, 24 h, Western Blot, vs DMSO; read-out: KAT2A NCI-H1048 DC50

Below, 5 compounds whose answers are already recorded.
CN1C[C@H](Nc2cnn(C)c(=O)c2Br)C[C@H](c2ccc(C(=O)N3CCC4(CC3)CCN(c3ccc5nnn(C6CCC(=O)NC6=O)c5c3)CC4)cc2)C1 (stereo partly drawn) [Compound 212] = 1 to 30 nM
Cc1c(N[C@@H]2C[C@H](c3ccc(C(=O)N4CCC5(CC4)CCN(c4ccc(C6CCC(=O)NC6=O)nc4)CC5)cc3)CN(C)C2)cnn(C)c1=O (stereo partly drawn) [Compound 241] = < 1 nM
CN1C[C@H](Nc2cnn(C)c(=O)c2Br)C[C@H](c2ccc(C(=O)N3CCC(Oc4cccc(C5CCC(=O)NC5=O)c4)CC3)cc2)C1 (stereo partly drawn) [Compound 120] = < 1 nM
Cc1cc(N2CCC3(CCN(C(=O)c4ccc([C@H]5C[C@@H](Nc6cnn(C)c(=O)c6C)CN(C)C5)cc4)CC3)CC2)cnc1C1CCC(=O)NC1=O (stereo partly drawn) [Compound 245] = < 1 nM
CN1C[C@H](Nc2cnn(C)c(=O)c2Br)C[C@H](c2ccc(C(=O)N3CCC4(CCC(c5ccc(C6CCC(=O)NC6=O)c(F)c5)CC4)CC3)cc2)C1 (stereo partly drawn) [Compound 325] = < 1 nM

// next item, DC50 requested
Consider the compound shown here: Cc1c(C2CCC(=O)NC2=O)ccc(N2CCC3(CCN(C(=O)c4ccc([C@H]5C[C@@H](Nc6cnn(C)c(=O)c6C)CN(C)C5)cc4)CC3)CC2)c1F (stereo partly drawn) [Compound 256] What is its recorded DC50?
< 1 nM

---

assay.system: KAT2B (Homo sapiens, UniProt Q92831)
Sequence (Q92831 whole entry): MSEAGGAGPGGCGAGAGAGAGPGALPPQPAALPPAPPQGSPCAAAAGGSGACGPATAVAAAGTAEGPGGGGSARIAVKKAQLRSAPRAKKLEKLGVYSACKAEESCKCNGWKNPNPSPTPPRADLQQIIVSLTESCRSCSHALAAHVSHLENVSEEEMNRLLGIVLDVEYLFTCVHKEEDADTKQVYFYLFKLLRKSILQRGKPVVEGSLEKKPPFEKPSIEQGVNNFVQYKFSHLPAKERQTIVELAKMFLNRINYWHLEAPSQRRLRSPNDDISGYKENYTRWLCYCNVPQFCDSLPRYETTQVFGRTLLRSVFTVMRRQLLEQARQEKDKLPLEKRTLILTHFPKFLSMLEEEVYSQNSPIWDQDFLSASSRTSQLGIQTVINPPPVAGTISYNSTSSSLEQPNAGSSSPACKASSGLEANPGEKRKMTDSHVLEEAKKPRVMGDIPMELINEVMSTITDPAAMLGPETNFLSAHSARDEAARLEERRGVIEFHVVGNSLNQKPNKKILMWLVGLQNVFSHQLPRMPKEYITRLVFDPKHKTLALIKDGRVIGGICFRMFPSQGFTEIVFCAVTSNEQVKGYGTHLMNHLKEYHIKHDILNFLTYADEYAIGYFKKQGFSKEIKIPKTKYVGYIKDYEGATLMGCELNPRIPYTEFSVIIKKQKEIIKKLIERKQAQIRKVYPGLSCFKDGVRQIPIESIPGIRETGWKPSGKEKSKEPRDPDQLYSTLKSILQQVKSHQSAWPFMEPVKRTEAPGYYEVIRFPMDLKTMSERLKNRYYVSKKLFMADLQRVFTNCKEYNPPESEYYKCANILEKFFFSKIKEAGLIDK
experimental.protocol: KAT2B degradation, Western Blot (Jess), NCI-H1048 cells
Format: cell-based
Set-up: degrader, Western blot (Jess)
condition.label: NCI-H1048 cells, KAT2B, 24 h, Western Blot, vs DMSO; read-out: KAT2B NCI-H1048 DC50
value.kind: DC50

CN1C[C@H](Nc2cnn(C)c(=O)c2Br)C[C@H](c2ccc(CN3CCC(Oc4ccc(C5CCC(=O)NC5=O)cc4)CC3)cc2)C1 (some centres unmarked) = 1 to 30 nM
CN1C[C@H](Nc2cnn(C)c(=O)c2Br)C[C@H](c2ccc(CN3CCC(c4ccc5c(C6CCC(=O)NC6=O)cncc5c4)C(F)(F)C3)cc2)C1 (some centres unmarked) = < 1 nM

Consider the compound shown here: CN1C[C@H](Nc2cnn(C)c(=O)c2Cl)C[C@H](c2ccc(C(=O)N3CCC4(CC3)CCN(c3ccc5c(C6CCC(=O)NC6=O)nccc5c3)CC4)cc2)C1 (some centres unmarked) What is its recorded DC50?
1 to 30 nM

Consider the compound shown here: CN1C[C@H](Nc2cnn(C)c(=O)c2Cl)C[C@H](c2ccc(CN3CCC4(CC3)CCN(c3ccc(C5CCC(=O)NC5=O)cc3)CC4)cc2)C1 (some centres unmarked) What is its recorded DC50?
< 1 nM

Consider the compound shown here: CN1C[C@H](Nc2cnn(C)c(=O)c2Cl)C[C@H](c2ccc(C(=O)N3CCC4(CC3)CCN(c3cc(C(F)(F)F)c(C5CCC(=O)NC5=O)cn3)CC4)cc2)C1 (some centres unmarked) What is its recorded DC50?
> 30 nM

Consider the compound shown here: CN1C[C@H](Nc2cnn(C)c(=O)c2Br)C[C@H](c2ccc(C(=O)N3CCN(c4cccc5c4oc(=O)n5C4CCC(=O)NC4=O)CC3)cc2)C1 (some centres unmarked) What is its recorded DC50?
1 to 30 nM

Consider the compound shown here: Cc1cc(N2CCC3(CCN(Cc4ccc([C@H]5C[C@@H](Nc6cnn(C)c(=O)c6C)CN(C)C5)cc4)CC3)CC2)ccc1C1CCC(=O)NC1=O (some centres unmarked) What is its recorded DC50?
< 1 nM

Consider the compound shown here: CN1C[C@H](Nc2cnn(C)c(=O)c2Cl)C[C@H](c2ccc(C(=O)N3CCC(Cc4ccc(N5CCC(=O)NC5=O)c(F)c4)CC3)cc2)C1 What is its recorded DC50?
1 to 30 nM

Consider the compound shown here: CN1C[C@H](Nc2cnn(C)c(=O)c2Br)C[C@H](c2ccc(CN3CC(c4cccc(C5CCC(=O)NC5=O)c4)C3)cc2)C1 (some centres unmarked) What is its recorded DC50?
> 30 nM

Consider the compound shown here: CN1C[C@H](Nc2cnn(C)c(=O)c2Br)C[C@H](c2ccc(C(=O)N3CCC4(CC3)CCN(c3ccc(C5CCC(=O)NC5=O)cc3)CC4)cc2)C1 (single isomer, unassigned) [Compound 240] What is its recorded DC50?
< 1 nM

Consider the compound shown here: CN1C[C@H](Nc2cnn(C)c(=O)c2Cl)C[C@H](c2ccc(CN3CCN(c4ccc5cc(C6CCC(=O)NC6=O)cnc5c4)CC3)cc2)C1 (some centres unmarked) What is its recorded DC50?
> 30 nM

---

DC50 listing for selected molecules.
assay.system: KAT2A (Homo sapiens)
experimental.protocol: KAT2A degradation, Western Blot (Jess), NCI-H1048 cells
Assay type: cell-based
Set-up: degrader, Western blot (Jess)
condition.label: NCI-H1048 cells, KAT2A, 24 h, Western Blot, vs DMSO; read-out: KAT2A NCI-H1048 DC50
Text: MOLM-13 cells or NCI-H1048 cells were used for Western Blot analysis of KAT2A degradation. KAT2B degradation can be measured in a similar manner with NCI-H1048 cells. […] MOLM-13 cells or NCI-H1048 cells were washed with PBS, then lysed with RIPA buffer containing 1×protease and phosphatase inhibitors (SantaCruz Biotechnologies Cat #sc-24948A). […] Protein was quantified via Bradford assay. […] Signal was detected by chemiluminescence. […]

Below, 5 molecules whose answers are already recorded.
Cc1ncsc1-c1ccc(CNC(=O)[C@@H]2C[C@@H](O)CN2C(=O)[C@@H](NC(=O)CCCCCNC(=O)c2ccc([C@H]3C[C@@H](Nc4cnn(C)c(=O)c4Br)CN(C)C3)cc2)C(C)(C)C)cc1 = > 30 nM
CN1C[C@H](Nc2cnn(C)c(=O)c2Br)C[C@H](c2ccc(CN3CCC(Oc4ccc(C5CCC(=O)NC5=O)cc4F)CC3)cc2)C1 (some centres unmarked) = < 1 nM
Cc1cc(N2CCC3(CCN(C(=O)c4ccc([C@H]5C[C@@H](Nc6cnn(C)c(=O)c6Cl)CN(C)C5)cc4)CC3)CC2)cc(C)c1C1CCC(=O)NC1=O (some centres unmarked) = < 1 nM
Cc1c(N[C@@H]2C[C@H](c3ccc(C(=O)N4CCC5(CC4)CCN(c4ccc(C6CCC(=O)NC6=O)cc4OC(F)(F)F)CC5)cc3)CN(C)C2)cnn(C)c1=O (some centres unmarked) = 1 to 30 nM
CN1C[C@H](Nc2cnn(C)c(=O)c2Br)C[C@H](c2ccc(CN3CCN(c4ccc5nc(C6CCC(=O)NC6=O)ccc5c4)CC3)cc2)C1 (some centres unmarked) = 1 to 30 nM

Consider the molecule shown here: CN1C[C@H](Nc2cnn(C)c(=O)c2Br)C[C@H](c2ccc(CN3CCN(c4cccc5c4oc(=O)n5C4CCC(=O)NC4=O)CC3)cc2)C1 (some centres unmarked) What is its recorded DC50?
< 1 nM

Consider the molecule shown here: Cc1cc(N2CCC3(CCN(C(=O)c4ccc([C@H]5C[C@@H](Nc6cnn(C)c(=O)c6Br)CN(C)C5)cc4)CC3)CC2)ncc1C1CCC(=O)NC1=O (some centres unmarked) What is its recorded DC50?
< 1 nM

Consider the molecule shown here: Cc1cc(N2CCC3(CCN(Cc4ccc([C@H]5C[C@@H](Nc6cnn(C)c(=O)c6C)CN(C)C5)cc4)CC3)CC2)ccc1C1CCC(=O)NC1=O (some centres unmarked) What is its recorded DC50?
< 1 nM

---

assay.system: KAT2A (Homo sapiens)
experimental.protocol: KAT2A degradation, Western Blot (Jess), NCI-H1048 cells
Type: cell-based
Design: degrader, Western blot (Jess)
condition.label: NCI-H1048 cells, KAT2A, 24 h, Western Blot, vs DMSO; read-out: KAT2A NCI-H1048 DC50
Source text: MOLM-13 cells or NCI-H1048 cells were used for Western Blot analysis of KAT2A degradation. KAT2B degradation can be measured in a similar manner with NCI-H1048 cells. […] MOLM-13 cells or NCI-H1048 cells were washed with PBS, then lysed with RIPA buffer containing 1×protease and phosphatase inhibitors (SantaCruz Biotechnologies Cat #sc-24948A). […] Protein was quantified via Bradford assay. […] Signal was detected by chemiluminescence. […]
DC50 listing for selected compounds.

Below, 8 compounds whose answers are already recorded.
Cc1nnc2c3ccccc3c(N[C@@H](C)[C@H](c3ccc(CN4CCN(c5cccc(C6CCC(=O)NC6=O)c5)CC4)cc3)N(C)C)nn12 (some centres unmarked) = > 30 nM
CN1C[C@H](Nc2cnn(C)c(=O)c2Cl)C[C@H](c2ccc(C(=O)N3CCC4(CC3)CCN(c3ccc(C5CCC(=O)NC5=O)c(F)c3)CC4)cc2)C1 (some centres unmarked) [Compound 317] = < 1 nM
CN1C[C@H](Nc2cnn(C)c(=O)c2Br)C[C@H](c2ccc(CN3CCN(c4cc(C5CCC(=O)NC5=O)c(F)cc4F)CC3)cc2)C1 (some centres unmarked) = > 30 nM
CN1C[C@H](Nc2cnn(C)c(=O)c2Br)C[C@H](c2ccc(C(=O)N3CC(C#Cc4ccc(C5CCC(=O)NC5=O)cc4)C3)cc2)C1 (some centres unmarked) [Compound 337] = < 1 nM
Cc1cc(N2CCN(C3CCN(C(=O)c4ccc([C@H]5C[C@@H](Nc6cnn(C)c(=O)c6Br)CN(C)C5)cc4)CC3)CC2)ccc1C1CCC(=O)NC1=O (some centres unmarked) = < 1 nM
CN1C[C@H](Nc2cnn(C)c(=O)c2Cl)C[C@H](c2ccc(C(=O)N3CCC4(CC3)CCN(c3cc(C5CCC(=O)NC5=O)ccn3)CC4)cc2)C1 (some centres unmarked) = < 1 nM
Cc1cc(N2CCC3(CCN(C(=O)c4ccc([C@H]5C[C@@H](Nc6cnn(C)c(=O)c6C)CN(C)C5)cc4)CC3)CC2)cc(F)c1C1CCC(=O)NC1=O (some centres unmarked) = < 1 nM
CN1C[C@H](Nc2cnn(C)c(=O)c2Br)C[C@H](c2ccc(C(=O)N3CCC4(CC3)CCN(c3ccc(C5CCC(=O)NC5=O)cc3C(F)(F)F)CC4)cc2)C1 (some centres unmarked) = < 1 nM

Consider the compound shown here: C[C@H](Nc1nn(C)c(=O)n(C)c1=O)[C@H](c1ccc(C(=O)N2CCC3(CC2)CCN(c2ccc(C4CCC(=O)NC4=O)cc2)CC3)cc1)N(C)C (some centres unmarked) What is its recorded DC50?
1 to 30 nM

Consider the compound shown here: CN1C[C@H](Nc2cnn(C)c(=O)c2Cl)C[C@H](c2ccc(CN3CCN(c4ccc(F)c(C5CCC(=O)NC5=O)c4)CC3)cc2)C1 (some centres unmarked) What is its recorded DC50?
< 1 nM

Consider the compound shown here: CN1C[C@H](Nc2cnn(C)c(=O)c2Cl)C[C@H](c2ccc(CN3CCN(c4ccc5c(C6CCC(=O)NC6=O)cncc5c4)CC3)cc2)C1 (some centres unmarked) What is its recorded DC50?
1 to 30 nM
